Below is a list of entries, each paired with its recorded pIC50 value.
molecular target: Receptor-type tyrosine-protein phosphatase beta (Homo sapiens); assay: Inhibition of recombinant human PTPbeta using DiFMUP as substrate preincubated for 10 mins followed by substrate addition and measured after 2 hrs
Sequence (P23467 whole entry): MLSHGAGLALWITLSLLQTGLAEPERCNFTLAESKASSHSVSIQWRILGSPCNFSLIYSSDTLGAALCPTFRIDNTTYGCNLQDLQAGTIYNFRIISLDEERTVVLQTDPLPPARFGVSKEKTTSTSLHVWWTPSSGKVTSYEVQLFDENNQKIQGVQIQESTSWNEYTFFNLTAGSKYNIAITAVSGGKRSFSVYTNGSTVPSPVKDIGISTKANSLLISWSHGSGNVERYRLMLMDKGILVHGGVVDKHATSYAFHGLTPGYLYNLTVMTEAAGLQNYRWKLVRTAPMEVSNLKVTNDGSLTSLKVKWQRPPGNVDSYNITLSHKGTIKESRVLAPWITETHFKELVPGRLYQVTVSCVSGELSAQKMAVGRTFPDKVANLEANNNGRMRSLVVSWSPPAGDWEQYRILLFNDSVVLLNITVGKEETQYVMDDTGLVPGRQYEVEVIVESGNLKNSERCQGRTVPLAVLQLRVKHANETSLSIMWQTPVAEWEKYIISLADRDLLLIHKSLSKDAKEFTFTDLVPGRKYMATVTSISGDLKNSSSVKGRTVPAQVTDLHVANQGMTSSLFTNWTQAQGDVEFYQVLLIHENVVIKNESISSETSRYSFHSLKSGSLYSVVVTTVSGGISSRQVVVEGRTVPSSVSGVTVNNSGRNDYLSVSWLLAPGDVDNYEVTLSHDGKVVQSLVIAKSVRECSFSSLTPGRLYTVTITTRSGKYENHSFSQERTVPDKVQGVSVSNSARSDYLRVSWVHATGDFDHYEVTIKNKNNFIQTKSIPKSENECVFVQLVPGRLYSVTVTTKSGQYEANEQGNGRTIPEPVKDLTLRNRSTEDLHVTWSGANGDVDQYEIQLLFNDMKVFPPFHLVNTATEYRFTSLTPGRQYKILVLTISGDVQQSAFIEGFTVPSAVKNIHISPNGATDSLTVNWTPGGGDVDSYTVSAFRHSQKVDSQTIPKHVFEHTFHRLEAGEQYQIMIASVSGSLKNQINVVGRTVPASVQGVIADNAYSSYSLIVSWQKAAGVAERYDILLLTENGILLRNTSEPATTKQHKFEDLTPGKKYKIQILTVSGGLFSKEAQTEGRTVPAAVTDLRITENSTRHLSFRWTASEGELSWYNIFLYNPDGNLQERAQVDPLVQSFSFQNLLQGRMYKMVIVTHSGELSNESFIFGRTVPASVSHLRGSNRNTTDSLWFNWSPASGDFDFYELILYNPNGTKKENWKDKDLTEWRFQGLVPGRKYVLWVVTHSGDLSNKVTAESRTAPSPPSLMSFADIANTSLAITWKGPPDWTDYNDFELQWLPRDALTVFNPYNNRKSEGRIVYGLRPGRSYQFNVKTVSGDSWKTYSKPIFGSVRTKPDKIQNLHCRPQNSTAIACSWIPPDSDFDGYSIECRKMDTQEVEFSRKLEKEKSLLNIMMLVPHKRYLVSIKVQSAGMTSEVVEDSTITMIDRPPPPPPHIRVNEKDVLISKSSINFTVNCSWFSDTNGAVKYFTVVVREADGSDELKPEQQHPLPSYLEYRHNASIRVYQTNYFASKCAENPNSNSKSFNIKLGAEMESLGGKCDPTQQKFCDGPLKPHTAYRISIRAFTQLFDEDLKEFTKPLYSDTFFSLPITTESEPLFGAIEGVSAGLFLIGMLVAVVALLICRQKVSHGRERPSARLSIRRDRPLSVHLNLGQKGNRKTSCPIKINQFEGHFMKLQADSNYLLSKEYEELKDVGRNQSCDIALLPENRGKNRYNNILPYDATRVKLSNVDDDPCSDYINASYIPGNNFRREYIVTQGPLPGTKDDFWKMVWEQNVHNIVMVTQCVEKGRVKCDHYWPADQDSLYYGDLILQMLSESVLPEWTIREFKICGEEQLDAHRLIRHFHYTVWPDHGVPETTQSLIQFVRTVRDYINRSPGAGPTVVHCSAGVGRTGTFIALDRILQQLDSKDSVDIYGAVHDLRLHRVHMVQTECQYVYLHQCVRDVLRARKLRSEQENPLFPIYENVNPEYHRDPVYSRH
# reply with the number alone; pIC50 is -log10 of concentration in mol/L

Worked examples, 5 molecules total:
CC(C)(C)OC(=O)N1CCC(C(=O)N(Cc2ccc(NS(=O)(=O)O)cc2)c2nc(-c3ccccc3)cs2)CC1; 5.19
O=C(c1ccccc1Cl)N(Cc1ccc(NS(=O)(=O)O)cc1)c1nc(-c2cccs2)cs1; 5.23
O=S(=O)(O)Nc1ccc(CN(c2nc(-c3cccs3)cs2)S(=O)(=O)c2cccc(Cl)c2)cc1; 5.76
O=C(Cc1ccc(Br)c(F)c1)N(Cc1ccc(NS(=O)(=O)O)cc1)c1ccccc1; 5.75
O=S(=O)(O)Nc1ccc(CN(c2nc(-c3ccccc3)cs2)S(=O)(=O)c2cccc(F)c2)cc1; 5.91

Problem: Endpoint output: pIC50 of `COc1ccc(S(=O)(=O)N(Cc2ccc(NS(=O)(=O)O)cc2)c2nc(-c3cccs3)cs2)cc1` . Value?
Solution: 5.74

Problem: Endpoint output: pIC50 of `O=S(=O)(O)Nc1ccc(CNc2nc(-c3cccs3)cs2)cc1` . Value?
Solution: 6.00

Problem: Endpoint output: pIC50 of `COC(=O)N[C@@H](Cc1ccccc1)C(=O)N(Cc1ccc(NS(=O)(=O)O)cc1)c1nc(-c2cccs2)cs1` . Value?
Solution: 5.18

Problem: Endpoint output: pIC50 of `COC(=O)N[C@@H](Cc1ccccc1)C(=O)N(Cc1ccc(NS(=O)(=O)O)cc1)c1nc(-c2ccccc2)cs1` . Value?
Solution: 5.46
